Tested on: A. baumannii ATCC15308
protocol details: MIC determination, broth microdilution (CLSI)
Type: cell-based
particulars: Acinetobacter baumannii, ATCC15308, strain 9
reported metric: MIC
Answer shape: numeric part, then the unit.

Inquiry: Give recorded MIC. CC1(C)[C@H](NC(=O)/C(=N\OC(CO)COc2ccc(C(=N)N)cc2)c2csc(N)n2)C(=O)N1OS(=O)(=O)O (mixture of isomers) [Example 45A]
Reply text: 2 µg/mL

Inquiry: Report measured MIC; entry is C[C@H]1[C@H](NC(=O)/C(=N\OCC(C)(C)Oc2ccc(C(=N)N)cc2)c2csc(N)n2)C(=O)N1S(=O)(=O)O [Example 17]
Reply text: 8 µg/mL

Inquiry: Note MIC for the compound shown: C[C@H]1[C@H](NC(=O)/C(=N\OCCOc2ccc(C(=N)N)c(O)c2)c2csc(N)n2)C(=O)N1S(=O)(=O)O [Example 2]
Reply text: 4 µg/mL
